Molecular target: T1, human GLP-1 receptor (human, UniProt P43220 24-463)
T1 construct: whole, on cells; also called hGLP-1R; hGLP1R
Experiment: [125I]-GLP-1 competition SPA, hGLP-1R membranes
MEASURED METRIC: Ki (nM)
Provide only the numeric value, understood in nM.

BINDER: YXEGTXTSDYSIXLDKKAQXEFIXYLIEGGPSSG (Aib2; αMeF6; αMeL13; K17((2-[2-(2-Amino-ethoxy)-ethoxy]-acetyl)2-(γ-Glu)-CO-(CH2)18-CO2H); Aib20; D-Glu24; C-terminal NH2) [Example 228]
Ki (nM): 2.43

BINDER: FXEGTFTSDYSIXLDKKAQXAFIEYLIEAGPSSGAPPPS (Aib2; αMeL13; K17((2-[2-(2-Amino-ethoxy)-ethoxy]-acetyl)2-(γ-Glu)-CO-(CH2)16-CO2H); Aib20; C-terminal NH2) [Example 328]
Ki (nM): 3.98

BINDER: YXEGTFTSDYSIXLDKKAQXAFIEYLIAGGPSSG (Aib2; αMeL13; K17((2-[2-(2-Amino-ethoxy)-ethoxy]-acetyl)2-(γ-Glu)-CO-(CH2)16-CO2H); Aib20; C-terminal NH2) [Example 305]
Ki (nM): 0.83

BINDER: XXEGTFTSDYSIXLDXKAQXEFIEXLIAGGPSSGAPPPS (D-Tyr1; Aib2; αMeL13; Orn16; K17((2-[2-(2-Amino-ethoxy)-ethoxy]-acetyl)2-(γ-Glu)-CO-(CH2)18-CO2H); Aib20; αMeY25; C-terminal NH2) [Example 293]
Ki (nM): 1.64

BINDER: YXEGTFTSDYSILLDKKAQHAFIEYLIEGGPSSGAPPPS (Aib2; K17((2-[2-(2-Amino-ethoxy)-ethoxy]-acetyl)2-(γ-Glu)-CO-(CH2)18-CO2H); C-terminal NH2) [Example 255]
Ki (nM): 2.58

BINDER: YXEGTXTSDXSIXLDXKAQXAFIXXLIAGGPSSGAPPPS (Aib2; αMeF(2F)6; 4Pal10; αMeL13; Orn16; K17((2-[2-(2-Amino-ethoxy)-ethoxy]-acetyl)2-(εK)-CO-(CH2)18-CO2H); Aib20; D-Glu24; αMeY25; C-terminal NH2) [Example 252]
Ki (nM): 0.383

BINDER: YXEGTXTSDXSIXLDXKAQXEFIXXLIEGGPSSG (Aib2; αMeF(2F)6; 4Pal10; αMeL13; Orn16; K17((2-[2-(2-Amino-ethoxy)-ethoxy]-acetyl)2-(γ-Glu)-CO-(CH2)16-CO2H); Aib20; D-Glu24; αMeY25; C-terminal NH2) [Example 264]
Ki (nM): 0.412

BINDER: YXEGTXTSDXSIXLDXKAQXAFIXXLIEGGPSSGAPPPS (Aib2; αMeF(2F)6; 4Pal10; αMeL13; Orn16; K17((2-[2-(2-Amino-ethoxy)-ethoxy]-acetyl)2-(εK)-CO-(CH2)18-CO2H); Aib20; D-Glu24; αMeY25; C-terminal NH2) [Example 251]
Ki (nM): 1.09

BINDER: XXEGTFTSDYSIXLDKKAQXAFIXYLIAGGPSSGAPPPS (D-Tyr1; Aib2; αMeL13; K17((2-[2-(2-Amino-ethoxy)-ethoxy]-acetyl)2-(γ-Glu)-CO-(CH2)18-CO2H); Aib20; D-Glu24; C-terminal NH2) [Example 352]
Ki (nM): 3.03

BINDER: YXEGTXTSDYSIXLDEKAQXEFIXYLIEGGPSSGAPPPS (Aib2; αMeF(2F)6; αMeL13; K17((2-[2-(2-Amino-ethoxy)-ethoxy]-acetyl)2-CO-(CH2)18-CO2H); Aib20; D-Glu24; C-terminal NH2) [Example 215]
Ki (nM): 6.85

### Prompt // lookup Ki for YXEGTFTSDYSILLDKKAQAAFIEYLIEGGPSSGAPPPS (Aib2; K17((2-[2-(2-Amino-ethoxy)-ethoxy]-acetyl)2-(γ-Glu)-CO-(CH2)18-CO2H); C-terminal NH2) [Example 253]
### Response 2.57

### Prompt // lookup Ki for YXEGTXTSDYSIXLDKKAQXEFIXYLIEGGPSSGAPPPS (Aib2; αMeF(2F)6; αMeL13; K17((2-[2-(2-Amino-ethoxy)-ethoxy]-acetyl)2-(γ-Glu)-CO-(CH2)18-CO2H); Aib20; D-Glu24; C-terminal NH2) [Example 212]
### Response 2.76

### Prompt // lookup Ki for YXEGTXTSDYSIXLDEKAQXEFIXYLIEGG (Aib2; αMeF(2F)6; αMeL13; K17((2-[2-(2-Amino-ethoxy)-ethoxy]-acetyl)2-(γ-Glu)-CO-(CH2)16-CO2H); Aib20; D-Glu24; C-terminal NH2) [Example 220]
### Response 2.71
